Every entry's value here was drawn from PubChem BioAssay (NCATS).

- Tested on: CASKI
- Test summary: Primary qHTS to identify gynecologic anti-cancer compounds using libraries of approved drugs and bioactive compounds (AID 1345084); also: nearly all actives have a fitted effect of over 55% in size
- Reported conditions: Gynecologic cancer cell panel viability, ATPlite luminescence, 48 h; series mostly up to 57.5 µM
- Excerpt: National Center for Advancing Translational Sciences [NCATS] Assay Overview: Chemotherapeutic drug responses vary from cancer to cancer and from patient to patient. […] ATPlite is a luminescence based assay reliant on the conversion of a luciferase substrate to light in the presence of ATP. As a cytotoxic compound will suppress growth and decrease the number of cells, the concentration of ATP will decrease, and less light signal will be detected in the well. […]
Records with an inconclusive call do not appear. Activity calls are given as the source filed them. Calls follow the shape of the dose curve; as a rule, active = well fitted cell-killing curve with a large enough effect; inconclusive = small, poorly fitted or top-dose-only effect, or effect the other way; inactive = flat fitted curve, though single readings scatter. Where a SMILES comes first, the peptide text is derived from it. [ ]: non-standard residue; d: D form. pGlu = O=C1CC[C@@H](C(=O)O)N1; Thz = O=C(O)[C@@H]1CSCN1
Outcomes: active, inactive

Molecule	Label
O=C(Nc1ccc(C(=O)O)c(O)c1)c1ccccc1	inactive
O=C(O)[C@H](CC(=O)N1C[C@H]2CCCC[C@H]2C1)Cc1ccccc1	inactive
Oc1c(Br)cc(Br)c2cccnc12	inactive
CC(C)(C)c1nnc(NS(=O)(=O)c2ccc(N)cc2)s1	inactive
NS(=O)(=O)c1ccc(-n2nc(C(F)(F)F)cc2-c2ccc(Cl)cc2)cc1	inactive
CC(C(=O)O)c1ccc(C(=O)c2cccs2)cc1 (configuration not stated)	inactive
Cc1c(N)c(=O)n(-c2ccccc2)n1C	inactive
COc1cc(/C=C/C(=O)N2CCN(CC(=O)N3CCCC3)CC2)cc(OC)c1OC	inactive
CN(CCCOc1ccc(Cc2ccccc2)cc1)CCC(=O)O	inactive
CS(=O)(=O)c1ccc(-n2nc(C(F)(F)F)cc2-c2ccc(F)cc2)cc1	inactive
CCCCCCOc1ccccc1C(N)=O	inactive
O=C(OCc1ccccc1)c1ccccc1	inactive
CCCC(=O)OC[C@@H](OC(=O)CCC)[C@@H](OC(=O)CCC)[C@H](Cn1c2nc(=O)[nH]c(=O)c-2nc2cc(C)c(C)cc21)OC(=O)CCC	inactive
O=C(Nc1ccc2[nH]ncc2c1)C1CCC1	inactive
CNC(=O)c1c(I)c(NC(=O)CCCCC(=O)Nc2c(I)c(C(=O)O)c(I)c(C(=O)NC)c2I)c(I)c(C(=O)O)c1I	inactive
COc1cccc2c1C(=O)c1c(O)c3c(c(O)c1C2=O)C[C@@](O)(C(=O)CO)C[C@@H]3O[C@H]1C[C@H](N)[C@H](O[C@@H]2CCCCO2)[C@H](C)O1	active
O=C(O)c1ccccc1Nc1cccc(C(F)(F)F)c1	inactive
C/C(=N\O)c1ccc(OCC(=O)N2CCCCC2)cc1	inactive
COc1ccc(/C=C/C(=O)Nc2ccccc2C(=O)O)cc1OC	inactive
c1ccc(CCNc2nc(-c3ccccc3)cs2)cc1	inactive
CC(C)OC(=O)c1cc(C(=O)OC(C)C)cc([N+](=O)[O-])c1	inactive
CCOC(=O)c1ccccc1O	inactive
Fc1ccc2[nH]c(CN3CCN(c4ccccn4)CC3)cc2c1	inactive
CC(C(=O)O)c1ccc(C(=O)c2ccccc2)s1 (configuration not stated)	inactive
Cc1ccc2c(n1)Oc1ccc(C(C)C(=O)OCC(=O)N(C)C)cc1C2 (configuration not stated)	inactive
O=C(O)Cc1ccc2c(c1)C(=O)c1ccccc1CO2	inactive
COC(=O)[C@H]1[C@H]2C[C@@H]3c4[nH]c5cc(OC)ccc5c4CCN3C[C@H]2C[C@@H](OC(=O)/C=C/c2cc(OC)c(OC)c(OC)c2)[C@@H]1OC	inactive
C#CC1(O)CC[C@H]2[C@@H]3CCC4=CCCC[C@@H]4[C@H]3CC[C@@]21C (some centres not stated)	inactive
CCCCN(CC)c1nc(C)nc2c1c(C)cn2-c1c(C)cc(C)cc1C	inactive
CO[C@@]1(NC(=O)Cc2cccs2)C(=O)N2C(C(=O)O)=C(COC(N)=O)CS[C@@H]21	inactive
O=C(/C=C/c1ccccc1)NCCO	inactive
O=C1CN(/N=C/c2ccc([N+](=O)[O-])o2)C(=O)N1	inactive
CC1(C)[C@@H](O[C@H]2O[C@H](C(=O)O)[C@@H](O)[C@H](O)[C@H]2O[C@@H]2O[C@H](C(=O)O)[C@@H](O)[C@H](O)[C@H]2O)CC[C@]2(C)[C@H]3C(=O)C=C4[C@@H]5C[C@@](C)(C(=O)O)CC[C@]5(C)CC[C@@]4(C)[C@]3(C)CC[C@@H]12	inactive
O=Cc1ccc(O)c(O)c1O	inactive
CN1CC(=O)N/C1=N/C(=O)Nc1cccc(Cl)c1	inactive
O=C1CC[C@@H](C(=O)N2CSC[C@H]2C(=O)O)N1 ([pGlu]-[Thz]-OH)	inactive
CCCCCCCCCCCCCCCC(=O)OC(C)C	inactive
S=c1[nH]c2ccccc2s1	inactive
CC1(C)[C@@H](O)CC[C@]2(C)[C@H]3C(=O)C=C4[C@@H]5C[C@@](C)(C(=O)O)CC[C@]5(C)CC[C@@]4(C)[C@]3(C)CC[C@@H]12	inactive
CN1CCN(c2cc3c(nn2)Oc2ccccc2N3C)CC1	inactive
CCOc1ccc2nc(S(N)(=O)=O)sc2c1	inactive
Nc1c(CC(=O)O)cccc1C(=O)c1ccc(Br)cc1	inactive

* * *

- Experimental target: Cytochrome P450 3A4 (Homo sapiens) (UniProt P08684)
- Sequence (P08684 whole entry, looked up): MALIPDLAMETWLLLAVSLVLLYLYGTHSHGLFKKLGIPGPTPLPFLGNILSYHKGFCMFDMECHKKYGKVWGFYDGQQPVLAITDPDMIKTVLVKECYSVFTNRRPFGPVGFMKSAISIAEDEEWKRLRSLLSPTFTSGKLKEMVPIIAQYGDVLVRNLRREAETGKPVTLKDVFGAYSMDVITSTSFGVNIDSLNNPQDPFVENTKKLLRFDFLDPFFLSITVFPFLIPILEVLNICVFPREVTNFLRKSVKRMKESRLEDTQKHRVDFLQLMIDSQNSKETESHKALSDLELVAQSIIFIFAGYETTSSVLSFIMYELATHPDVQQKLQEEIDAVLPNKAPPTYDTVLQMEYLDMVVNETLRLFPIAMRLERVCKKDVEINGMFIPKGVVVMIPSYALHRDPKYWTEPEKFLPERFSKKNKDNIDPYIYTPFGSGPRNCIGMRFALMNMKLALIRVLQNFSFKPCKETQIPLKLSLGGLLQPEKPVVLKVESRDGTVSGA
- Test summary: qHTS Assay for Inhibitors and Substrates of Cytochrome P450 3A4 (AID 884); also: nearly all actives have a fitted effect of over 50% in size
- Reported conditions: recombinant CYP3A4, Luciferin-PPXE luminescence; series mostly up to 57.1 µM
Results filed as inconclusive are left out. Calls of active or inactive are those of the source. Calls follow the shape of the dose curve; as a rule, active = well fitted inhibition curve with a large enough effect; inconclusive = small, poorly fitted or top-dose-only effect; inactive = no such curve, though single readings can be large or run the other way.
Outcomes: T (active), F (inactive)

Molecule	Label
Nc1ccc([N+](=O)[O-])cc1O	F
NC(N)=NC(=O)c1nc(Cl)c(N2CCCCCC2)nc1N	F
NCCO	F
O=C(O)CC[C@@H](C(=O)O)N1C(=O)c2ccccc2C1=O	F
CC(C(=O)O)c1ccc2c(c1)[nH]c1ccc(Cl)cc12 (configuration not stated)	F
CN(C)c1nc2c(Br)c(Br)c(Br)c(Br)c2[nH]1	T
O=c1[nH]c2ccccc2n1CCCN1CCN(C(c2ccccc2)c2ccccc2)CC1	F

* * *

- Experimental target: Phosphoglycerate kinase, glycosomal (Trypanosoma brucei brucei) (UniProt P07378)
- Sequence (P07378 whole entry, looked up): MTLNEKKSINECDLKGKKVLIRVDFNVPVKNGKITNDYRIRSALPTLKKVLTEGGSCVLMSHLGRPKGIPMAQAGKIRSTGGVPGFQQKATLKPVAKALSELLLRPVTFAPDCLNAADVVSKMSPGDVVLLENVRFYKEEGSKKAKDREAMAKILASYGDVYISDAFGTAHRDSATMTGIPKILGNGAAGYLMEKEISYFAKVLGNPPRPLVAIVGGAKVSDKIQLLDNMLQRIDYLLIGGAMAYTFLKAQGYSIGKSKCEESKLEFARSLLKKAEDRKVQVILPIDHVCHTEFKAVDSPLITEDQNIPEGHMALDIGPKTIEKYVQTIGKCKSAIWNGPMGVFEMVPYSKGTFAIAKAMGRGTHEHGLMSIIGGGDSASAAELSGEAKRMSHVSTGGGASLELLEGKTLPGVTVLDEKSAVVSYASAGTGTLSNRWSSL
- Test summary: qHTS Validation Assay to Find Inhibitors of Phosphoglycerate Kinase (AID 504547)
- Reported conditions: enzymatic PGK inhibition, coupled luminescence read-out; series mostly up to 57.5 µM
The source made the active and inactive calls. Calls come from the whole dose curve; as a rule, active = well fitted inhibition curve with a large enough effect; inconclusive = small, poorly fitted or top-dose-only effect; inactive = flat fitted curve, though single readings scatter.

Molecule	outcome
NC(=S)c1ccc[n+]([C@@H]2O[C@@H](COP(=O)([O-])OP(=O)(O)OC[C@H]3O[C@@H](n4cnc5c(N)ncnc54)[C@H](OP(=O)(O)O)[C@@H]3O)C(O)C2O)c1 (stereo partly drawn)	inactive
COc1ccc2c(c1)CCC1C2CC[C@@]2(C)C1CC[C@@H]2NCCCCCCN1C(=O)CCC1=O (stereo partly drawn)	inactive
CN(C)CCC(c1ccc(Cl)cc1)c1ccccn1 (stereo not drawn)	inactive

* * *

- Test summary: qHTS for differential inhibitors of proliferation of Plasmodium falciparum line D10 (AID 1877);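 also: parasites grown with compound for 72 h before DNA staining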
- Reported conditions: series mostly up to 28.7 µM
Inconclusive results are not listed. Calls of active or inactive are those of the source. Calls come from the whole dose curve; as a rule, active = well fitted curve in the direction sought with a large enough effect; inconclusive = small, poorly fitted or top-dose-only effect, or another doubt; inactive = no such curve, though single readings can be large or run the other way.
Outcomes: active, inactive

Compound	Label
OC[C@H]1O[C@@H](n2cnc3c(NC4CCCCC4)ncnc32)[C@H](O)[C@@H]1O	inactive
Nc1ccn([C@@H]2O[C@H](CO)[C@@H](O)[C@@H]2O)c(=O)n1	inactive
Fc1cccc(/C=N/N=C/c2cccc(F)c2)c1	inactive
CCCCCCCCCCCCCCCC(=O)NCC(COP(=O)([O-])OCC[N+](C)(C)C)OCC (stereo not given)	inactive
C[N+](C)(CCCCCC[N+](C)(C)CCCN1C(=O)c2cccc3cccc(c23)C1=O)CCCN1C(=O)c2cccc3cccc(c23)C1=O	active

* * *

- Experimental target: Glutathione peroxidase 1 (Homo sapiens) (UniProt P07203)
- Sequence (P07203 whole entry, looked up): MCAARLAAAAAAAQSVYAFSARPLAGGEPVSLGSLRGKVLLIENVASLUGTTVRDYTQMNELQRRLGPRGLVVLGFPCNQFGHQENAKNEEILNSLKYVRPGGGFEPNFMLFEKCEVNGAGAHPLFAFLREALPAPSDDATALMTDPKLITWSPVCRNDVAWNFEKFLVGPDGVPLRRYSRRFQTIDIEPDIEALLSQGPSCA
- Test summary: Primary qHTS Assay for Inhibitors of Recombinant Selenoprotein Glutathione Peroxidase 1 (GPX1) (AID 1845191); also: nearly all actives have a fitted effect of over 65% in size
- Reported conditions: recombinant GPX1, GR-coupled NADPH fluorescence, 15 min; series mostly up to 48.8 µM
Results filed as inconclusive are left out. Calls of active or inactive are those of the source. Calls follow the shape of the dose curve; as a rule, active = well fitted inhibition curve with a large enough effect; inconclusive = small, poorly fitted or top-dose-only effect; inactive = flat fitted curve, though single readings scatter.

Compound	Experimental target	outcome
Cc1ccc2c(n1)Oc1ccc(C(C)C(=O)OCC(=O)N(C)C)cc1C2 (stereo not given)	Glutathione peroxidase 1 (Homo sapiens) (UniProt P07203)	inactive
S=c1[nH]c2ccccc2s1	Glutathione peroxidase 1 (Homo sapiens) (UniProt P07203)	inactive
O=C1CN(/N=C/c2ccc([N+](=O)[O-])o2)C(=O)N1	Glutathione peroxidase 1 (Homo sapiens) (UniProt P07203)	inactive
Nc1c(CC(=O)O)cccc1C(=O)c1ccc(Br)cc1	Glutathione peroxidase 1 (Homo sapiens) (UniProt P07203)	inactive
CC1(C)S[C@@H]2[C@H](NC(=O)[C@H](NC(=O)N3CCN(S(C)(=O)=O)C3=O)c3ccccc3)C(=O)N2[C@H]1C(=O)O	Glutathione peroxidase 1 (Homo sapiens) (UniProt P07203)	inactive
COCCOc1cc2ncnc(Cl)c2cc1OCCOC	Glutathione peroxidase 1 (Homo sapiens) (UniProt P07203)	inactive
COc1cccc(C(=O)NCCN2CCN(c3ccc(Cl)cc3)CC2)c1	Glutathione peroxidase 1 (Homo sapiens) (UniProt P07203)	inactive
CN(C)[C@@H]1C(=O)C(C(=O)NCN2CCCC2)=C(O)[C@@]2(O)C(=O)C3=C(O)c4c(O)cccc4[C@@](C)(O)C3C[C@@H]12 (stereo not given in full)	Glutathione peroxidase 1 (Homo sapiens) (UniProt P07203)	inactive
[O-][n+]1ccccc1SSc1cccc[n+]1[O-]	Glutathione peroxidase 1 (Homo sapiens) (UniProt P07203)	inactive
CCNc1nc2c(ncn2[C@H]2C[C@H](O)[C@@H](CO)O2)c(=O)[nH]1	Glutathione peroxidase 1 (Homo sapiens) (UniProt P07203)	inactive
